Biological target: 5 HT2C receptor (Homo sapiens)
Decide using IC50 alone. Strictly below 800 nM: MET. Equal to or above 800 nM: NOT MET.

Look over these answered cases.
compound="CCN1CCCC1CNCc1cnn(-c2ccc(-c3ccccc3)cc2)c1-c1ccccc1F (centres unmarked)" discrete_label="NOT MET"
compound=NCCNCc1cnn(-c2ccc(-c3ccccc3)cc2)c1-c1ccccc1F discrete_label=MET
compound=Fc1ccccc1-c1c(CNc2ccon2)cnn1-c1ccc(-c2ccccc2)cc1 discrete_label="NOT MET"
compound=CC(C)N1CCN(Cc2cnn(-c3ccc(-c4ccc(F)cc4)cc3)c2-c2ccc(Cl)cc2)CC1 discrete_label="NOT MET"
compound="OC1CCN(Cc2cnn(-c3ccc(-c4ccccc4)cc3)c2-c2ccccc2F)C1 (centres unmarked)" discrete_label="NOT MET"
compound=NCc1cnn(-c2ccc(-c3ccccc3)cc2)c1-c1ccccc1 discrete_label="NOT MET"

Now look at this entry.
[in] Here's an entry: "CC(C)c1ccc(-n2ncc(CN3CCN(C)CC3)c2-c2ccccc2F)cc1" . Is its IC50 below 800 nM?
[out] MET

----------
// values below are reported pIC50
Target sequence: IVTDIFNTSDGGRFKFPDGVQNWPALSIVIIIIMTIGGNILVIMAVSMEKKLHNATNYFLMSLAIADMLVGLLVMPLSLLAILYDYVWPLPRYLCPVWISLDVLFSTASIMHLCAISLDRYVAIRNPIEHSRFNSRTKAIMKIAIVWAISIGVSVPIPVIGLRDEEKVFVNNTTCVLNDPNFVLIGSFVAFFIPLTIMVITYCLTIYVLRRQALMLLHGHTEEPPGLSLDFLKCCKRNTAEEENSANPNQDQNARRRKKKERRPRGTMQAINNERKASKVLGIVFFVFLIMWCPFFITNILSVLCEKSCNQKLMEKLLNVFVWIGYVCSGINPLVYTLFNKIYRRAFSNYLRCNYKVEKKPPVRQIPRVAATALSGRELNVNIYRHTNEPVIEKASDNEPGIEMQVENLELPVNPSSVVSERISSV
The value called pIC50 is obtained by taking minus log10 of the concentration in mol/L.

Here is how some compounds turned out for pIC50.
compound="COc1ccccc1-c1c(CN2CCN(C)CC2)cnn1-c1ccc(-c2ccsc2)cc1 [Example 1055]" parameter_measured=pIC50 observed_value=6.52
compound="CCN1CCN(Cc2cnn(-c3ccc(-c4ccccc4)cc3)c2-c2ccccc2F)CC1 [Example 927]" parameter_measured=pIC50 observed_value=6.00
compound="Fc1ccccc1-c1c(CN2CCNCC2)cnn1-c1ccc(C(F)(F)F)cc1 [Example 944]" parameter_measured=pIC50 observed_value=6.10

Shifting focus to the compound that follows.
Lab book: pIC50 of Fc1ccccc1-c1c(CN2CCCCC2)cnn1-c1ccc(-c2ccccc2)cc1 [Example 931] noted as 6.00

----------
// values below are reported IC50
Target chain: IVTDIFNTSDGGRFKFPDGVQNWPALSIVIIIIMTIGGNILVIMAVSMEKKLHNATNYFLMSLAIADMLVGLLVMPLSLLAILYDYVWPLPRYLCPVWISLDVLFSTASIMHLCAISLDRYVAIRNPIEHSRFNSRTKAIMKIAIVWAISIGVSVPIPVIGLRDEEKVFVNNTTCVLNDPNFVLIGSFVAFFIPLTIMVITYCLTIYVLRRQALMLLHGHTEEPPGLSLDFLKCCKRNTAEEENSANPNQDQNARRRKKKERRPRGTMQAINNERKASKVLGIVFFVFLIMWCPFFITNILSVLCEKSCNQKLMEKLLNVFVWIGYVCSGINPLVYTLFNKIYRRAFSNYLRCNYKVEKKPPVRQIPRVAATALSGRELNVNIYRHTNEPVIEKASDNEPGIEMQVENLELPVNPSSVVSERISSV
Quick note: give the figure in µM, leave out the unit.

Here is how some compounds turned out for IC50.
chemical_smiles=CN1CCN(Cc2cnn(-c3ccc(-c4ccc(F)cc4)cc3)c2-c2ccc(Cl)cc2)CC1 observed_value=1
chemical_smiles=CCN(CC)Cc1cnn(-c2ccc(-c3ccccc3)cc2)c1-c1ccccc1F observed_value=1

Lab book: IC50 of "CN(C)CCN(C)Cc1cnn(-c2ccc(-c3ccc(F)cc3)cc2)c1-c1ccc(Cl)cc1" noted as 1

Lab book: IC50 of "Fc1ccccc1-c1c(CN2CCNCC2)cnn1-c1ccc(-c2ccccc2)cc1" noted as 0.66

----------
Molecular target: 5 HT2C receptor (Homo sapiens, UniProt P28335)
Sequence (P28335 33-458): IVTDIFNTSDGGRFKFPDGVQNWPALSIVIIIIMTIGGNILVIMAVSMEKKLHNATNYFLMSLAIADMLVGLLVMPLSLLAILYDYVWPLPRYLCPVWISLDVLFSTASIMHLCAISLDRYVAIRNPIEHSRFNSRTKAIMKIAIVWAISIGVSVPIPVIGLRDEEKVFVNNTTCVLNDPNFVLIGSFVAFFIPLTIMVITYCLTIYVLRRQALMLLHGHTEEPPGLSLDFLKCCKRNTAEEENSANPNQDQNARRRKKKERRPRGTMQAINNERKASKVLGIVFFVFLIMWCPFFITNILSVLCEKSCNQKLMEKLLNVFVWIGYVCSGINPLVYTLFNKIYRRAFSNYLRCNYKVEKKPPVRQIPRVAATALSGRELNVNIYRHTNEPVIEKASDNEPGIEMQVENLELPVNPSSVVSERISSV
parameter measured: IC50 (nM)
Quick note: give the figure in nM, leave out the unit.

Lab book: IC50 of "CCN1CCN(Cc2cnn(-c3ccc(-c4ccc(F)cc4)cc3)c2-c2ccccc2Cl)CC1" noted as 1000

----------
Biological target: 5-HT2A receptors (Rattus norvegicus, UniProt P14842)
Sequence (P14842 whole entry): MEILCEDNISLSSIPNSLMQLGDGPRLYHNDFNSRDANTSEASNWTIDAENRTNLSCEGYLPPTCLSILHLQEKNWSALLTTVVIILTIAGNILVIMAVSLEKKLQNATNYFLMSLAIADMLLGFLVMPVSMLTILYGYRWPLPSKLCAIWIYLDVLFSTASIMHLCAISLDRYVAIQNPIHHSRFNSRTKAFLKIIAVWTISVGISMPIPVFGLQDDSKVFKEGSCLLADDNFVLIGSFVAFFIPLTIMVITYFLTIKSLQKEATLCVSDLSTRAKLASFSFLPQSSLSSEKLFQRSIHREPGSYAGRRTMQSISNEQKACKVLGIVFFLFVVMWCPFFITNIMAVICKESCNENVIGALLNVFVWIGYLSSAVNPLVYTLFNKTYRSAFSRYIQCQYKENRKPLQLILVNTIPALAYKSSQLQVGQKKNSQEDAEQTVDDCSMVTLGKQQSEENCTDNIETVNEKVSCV
Assay: in-vitro affinity to 5-HT2A receptors, displacement of [3H]ketanserine (Example A1)
Format: binding
Conditions: target not given; description names affinity to 5-HT2A receptors; read-out: IC50
// values below are reported IC50
Quick note: give the figure in µM, leave out the unit.

Here is how some molecules turned out for IC50.
molecule=Cn1ccnc1CNCc1cnn(-c2ccc(-c3ccccc3)cc2)c1-c1ccccc1 unit_symbol=µM observed_value=0.039
molecule="CC(C)(C)OC(=O)N1CC2C(C1)C2NCc1cnn(-c2ccc(-c3ccccc3)cc2)c1-c1ccccc1F (stereo not drawn)" unit_symbol=µM observed_value=0.52
molecule=Fc1ccccc1-c1c(CN2CCOCC2)cnn1-c1ccc(-c2ccccc2)cc1 unit_symbol=µM observed_value=1.1

Lab book: IC50 of Fc1ccccc1-c1c(CNC2CN3CCC2CC3)cnn1-c1ccc(-c2ccccc2)cc1 (stereo not drawn) noted as 0.14

Lab book: IC50 of "CN1CCN(Cc2cnn(-c3ccc(-c4cccnc4)cc3)c2-c2ccccc2F)CC1" noted as 0.17

Lab book: IC50 of CC1CN(Cc2cnn(-c3ccc(-c4ccccc4)cc3)c2-c2ccccc2F)CC(C)N1 (stereo not drawn) noted as 0.1

Lab book: IC50 of "CCN(Cc1ccccc1)Cc1cnn(-c2ccc(-c3ccccc3)cc2)c1-c1ccccc1F" noted as 0.32

Lab book: IC50 of "CN1CCN(Cc2cnn(-c3ccc(-c4cc(F)ccc4F)cc3)c2-c2ccccc2F)CC1" noted as 0.055

Lab book: IC50 of "Cn1cccc1CNCc1cnn(-c2ccc(-c3ccccc3)cc2)c1-c1ccccc1" noted as 0.026

----------
// values below are reported IC50
Target: UniProtKB P14842
Test: in-vitro affinity to 5-HT2A receptors, displacement of [3H]ketanserine (Example A1)
Assay type: binding
Conditions: read-out: HT2A IC50
Quick note: give the figure in µM, leave out the unit.

Here is how some molecules turned out for IC50.
molecule=CN(C)C1CCN(Cc2cnn(-c3ccc(-c4ccccc4)cc3)c2-c2ccccc2F)CC1 observed_value=0.2
molecule=CCN1CCN(Cc2cnn(-c3ccc(-c4ccc(F)cc4)cc3)c2-c2ccc(Cl)cc2)CC1 observed_value=0.31
molecule=CN1CCN(Cc2cnn(-c3ccc(OC(F)(F)F)cc3)c2-c2ccccc2F)CC1 observed_value=0.27

Lab book: IC50 of OC1CCN(CCc2cnn(-c3ccc(-c4ccc(F)cc4)cc3)c2-c2ccccc2F)C1 (stereo not drawn) noted as 0.02

Lab book: IC50 of "Fc1ccccc1-c1c(CNCc2nc3ccccc3[nH]2)cnn1-c1ccc(-c2ccccc2)cc1" noted as 0.076

Lab book: IC50 of "CN1CCN(Cc2cnn(-c3ccc(-c4ccc5c(c4)OCCO5)cc3)c2-c2ccccc2F)CC1" noted as 0.013

Lab book: IC50 of "CCN1CCN(Cc2cnn(-c3ccc(-c4ccc(F)cc4)cc3)c2-c2ccc(OC)cc2)CC1" noted as 0.2

Lab book: IC50 of "COCCNCc1cnn(-c2ccc(-c3ccccc3)cc2)c1-c1ccccc1F" noted as 0.016

Lab book: IC50 of "CN1CCN(Cc2cnn(-c3ccc(-c4ccc(F)cc4)cc3)c2-c2cc(Cl)cc(Cl)c2)CC1" noted as 0.4

Lab book: IC50 of CN(C)C1CCN(Cc2cnn(-c3ccc(-c4ccccc4)cc3)c2-c2ccccc2F)C1 (stereo not drawn) noted as 0.035

Lab book: IC50 of "CCN(CC)Cc1cnn(-c2ccc(-c3ccccc3)cc2)c1-c1ccccc1F" noted as 0.011

Lab book: IC50 of "CN1CCN(CCc2cnn(-c3ccc(-c4ccc(F)cc4)cc3)c2-c2ccccc2F)CC1" noted as 0.0233

Lab book: IC50 of "CCN1CCN(Cc2cnn(-c3ccc(-c4ccc(F)cc4)cc3)c2-c2ccccc2Cl)CC1" noted as 0.088

Lab book: IC50 of "Fc1ccccc1-c1c(CNc2ccon2)cnn1-c1ccc(-c2ccccc2)cc1" noted as 0.24

Lab book: IC50 of "OCc1cnn(-c2ccc(-c3ccc(F)cc3)cc2)c1-c1ccccc1Cl" noted as 0.38

Lab book: IC50 of "Fc1ccccc1-c1c(CN2CCCC2)cnn1-c1ccc(-c2ccccc2)cc1" noted as 0.032

Lab book: IC50 of "CN1CCN(Cc2cnn(-c3ccc(-c4ccc(F)cc4)cc3)c2-c2ccccc2)CC1" noted as 0.013

Lab book: IC50 of "Fc1ccccc1-c1c(CNC2CCNCC2)cnn1-c1ccc(-c2ccccc2)cc1" noted as 0.47

Lab book: IC50 of "CC(C)c1ccc(-c2ccc(-n3ncc(CN4CCN(C)CC4)c3-c3ccccc3F)cc2)cc1" noted as 0.0581

Lab book: IC50 of "CN1CCN(Cc2cnn(-c3ccc(-c4cc(F)ccc4F)cc3)c2-c2ccc(F)cc2)CC1" noted as 0.24

Lab book: IC50 of "CN1CCN(Cc2cnn(-c3ccc(-c4ccc(F)cc4)cc3)c2-c2ccccc2F)CC1" noted as 0.0131

Lab book: IC50 of "Fc1ccccc1-c1c(CN2CCN(Cc3ccncc3)CC2)cnn1-c1ccc(-c2ccccc2)cc1" noted as 0.075

Lab book: IC50 of OC1CCN(Cc2cnn(-c3ccc(-c4ccccc4)cc3)c2-c2ccccc2F)C1 (stereo not drawn) noted as 0.014

Lab book: IC50 of "Cn1ccnc1CNCc1cnn(-c2ccc(-c3ccccc3)cc2)c1-c1ccccc1" noted as 0.039
